Below, each of the compounds is paired with its reported melting point value.
observation type: melting point

compound	measured result
COc1cc(OC)nc(Oc2ccc3ncccc3c2C(=O)O)n1	195 to 198 °C
N#Cc1ccc(OCc2ccsc2)cc1OC(C(=O)O)c1cccc(Cl)c1 (racemic)	134 to 136 °C
Cc1ccc(-c2ccc3c(c2)C=C(C(=O)Nc2ccc(CN(C)C4CCOCC4)cc2)CCO3)s1	129 to 130 °C
CCc1cc(Oc2ccc([C@@H]3OC(=O)N[C@@H]3Cc3cccc(OC(F)(F)C(F)F)c3)cc2)ccc1Cl (racemic)	100 to 101 °C

* * *

Documented melting point across a set of molecules
observation type: melting point

molecule	observation type	measured result
CS(=O)(=O)Nn1c(=O)[nH]c2cc([N+](=O)[O-])c(-n3cccc3)cc2c1=O	melting point	243 to 250 °C
Cc1ccc(C2CCN(C(=O)CCC(=O)c3ccc4c(c3)CCN(C(=O)C(F)(F)F)CC4)CC2)cc1	melting point	132 to 134 °C
COc1ccc(C(=O)NCCc2ccccc2C)cc1	melting point	81.8 to 82.1 °C
O=C(O)C1(Cc2ccccc2)CCN(Cc2ccccc2)CC1	melting point	262 °C
CCOCc1nc(N)c2nccnc2n1	melting point	152 to 154 °C
C=CCC1CC(=O)N1C(C(=O)OCOC(=O)C(C)(C)C)=P(c1ccccc1)(c1ccccc1)c1ccccc1 (stereo not given)	melting point	140 to 142 °C
O=C1CC(c2ccc(-c3ccc(OCc4ccc(Br)cc4)cc3)cc2)Cc2ccccc21 (stereo not given)	melting point	191 °C
CC(C)(Nc1ccc(OCc2ccccc2)cc1)C(=O)O	melting point	210 °C
CC(C)(Nc1c(Cl)cccc1[N+](=O)[O-])C(=O)O	melting point	107 to 109 °C
Nc1nc2ccccc2c2c1nc(O)n2Cc1cccnc1	melting point	> 250 °C

* * *

observation type: melting point

mol	measured result
CCN1CCN(CC)c2cc(N)ccc2C1=O	140 to 141 °C
Cc1nc(-c2nc(C)c(-c3ccnc(Nc4ccc(N5CCOCC5)cc4)n3)s2)cs1	262 to 263 °C
CCCc1nc(C=O)c(C)[nH]1	126 to 129 °C
CC(C)(C)c1ccc(-c2cc3ccc(C(=O)O)cc3o2)cc1	294 °C
O=C(O)CCCCCCCn1c(-c2ccccc2)nc(-c2ccccc2Cl)c1-c1ccccc1Cl	198 °C
COc1ccc(-c2nc(C)c(C(N)=O)s2)cc1OC	218 to 220 °C
Cc1cccc(-c2c3c(cc4ccc(O)cc24)-c2ccc(O)cc2CO3)c1	219 to 222 °C
COC(=O)c1nc(Nc2cccc(C(F)(F)F)c2)sc1-c1ccccc1	147 to 149 °C
CC(=O)N(CCCC(=NNC(N)=S)c1ccc(F)cc1)C(C)C	155 to 157 °C
CCSc1cc2c(cc1F)C(=O)C(=O)N2	215 °C

* * *

mol	reported relation	melting point (°C)
Cn1c(=O)c2nc(-c3ccc(/C=C/C(=O)O)cc3)[nH]c2n(Cc2ccc(C#N)cc2)c1=O	>	350
CCc1cccc(CC(=O)O)c1OCCCn1cc(C(=O)NCc2ccc(C(F)(F)F)cc2)c(OC(C)C)n1	=	108
CCOc1ccc(-c2ccc(=O)[nH]n2)cc1OC	=	172
CSc1ccc(NC#N)c(-c2ccccc2)c1	=	85
CC(=O)C1=C(O)C(=C(C)Nc2cc(NS(C)(=O)=O)cc(NS(C)(=O)=O)c2)C(=O)OC1=O	=	260

* * *

observation type: melting point

compound	observation type	measured result
C=CC(O)c1cc(O)ccc1[N+](=O)[O-] (stereo not given)	melting point	126 to 130 °C
Cc1cc(C)cc(N(CCN)Cc2ccc3nc(NCCCN4CCOCC4)n(Cc4nc(C)ccc4O)c3c2)c1	melting point	196 °C
CSc1nn2c(N)cc(CN3CCN(C)CC3)nc2c1S(=O)(=O)c1ccccc1	melting point	203 to 205 °C
C=C=COc1ccc2ccc(OC=C=C)cc2c1	melting point	80.5 to 83.5 °C
Cn1c(-c2ccccc2S(C)=O)nc2ccccc21 (stereo not given)	melting point	157 to 159 °C

* * *

compound	melting point
O=C1N(N2CCOCC2)c2ccccc2C1(O)Cc1ccncc1 (stereo not given)	198 to 200 °C
COCCOc1cnn(-c2nc3ccccc3c(=O)[nH]2)c1	119 to 124 °C
CCCC(=O)c1cc2c(=O)cc(C(=O)OC)[nH]c2c(C)c1C	157 to 159 °C
COc1ccc(CC(=O)NC(NC(=NC#N)Nc2cccnc2OC)C(C)(C)C)cc1OC (stereo not given)	146 to 147 °C
CC(C)(C)OC(=O)Nc1ccsc1NC(=O)OC(C)(C)C	165 to 167 °C

* * *

Here the recorded melting point is given for each entry.
observation type: melting point

compound	measured result
Clc1nccnc1Sc1ccccc1	100 to 111 °C
CCCCNc1cc(C(=O)O)cc(S(N)(=O)=O)c1Oc1cccc(NC(C)=O)c1	235 to 240 °C
CN1CCN(CCn2c3ccccc3c(=NN=C3NCCS3)c3ccccc32)CC1	204 to 205 °C
O=S(=O)(Cc1ccc(O)cc1)Nc1ncc(-c2ccc(O)cc2)nc1Cc1ccccc1	194 to 196 °C
CC(C)OC(=O)COCc1cc(-c2nn(C)c(C(F)(F)F)c2Cl)c(F)cc1Cl	55 °C
NS(=O)(=O)c1cccc(C(O)CO)c1 (stereo unspecified)	170 to 171 °C
Clc1cc(N2CCCC2)nc(Cl)n1	100 to 104 °C
CCC(NC(=O)CC(F)(F)F)c1ccc(Cl)c2nc3n(c12)CCCN3c1ccc(Cl)cc1Cl (stereo unspecified)	285 to 290 °C
O=C1c2cc(O)ccc2NCC1Cc1ccccc1 (stereo unspecified)	143 to 149 °C
CN1CCN(c2n[nH]c(-c3ccc(F)cc3)c2-c2ccncc2)CC1	238 to 240 °C
Cc1ccc(N2CCN(CCCc3[nH]nc4c3CCC4)CC2)cc1	101 to 102 °C

* * *

As shown below, each of these molecules has a reported melting point value.
observation type: melting point

molecule	observation type	measured result
Cc1nc(-c2ccc(Cl)cc2)c(CBr)o1	melting point	75 to 76 °C
O=c1oc2c(c(O)c1C(c1ccccc1)C1CC1)CCC2 (centres undefined)	melting point	183 to 185 °C
Cc1c(NC(=O)c2cc3c(s2)C2CCC3C2)cccc1-c1cn(C)c(=O)c(Nc2ccc(C3C(=O)N(C)CCN3C)cc2)n1 (centres undefined)	melting point	178 to 179 °C
CNC(=S)NCCn1c(=O)ccc2c(C)cc(C)nc21	melting point	216 to 218 °C
Cc1cc(=O)[nH]nc1-c1ccc2nc(C3CC3)n(Cc3ccc(-c4ccccc4-c4nnn[nH]4)cc3)c2c1	melting point	225 °C
COc1ccc2c(c1)nnc1c(C)nc(-c3cc(Cl)ccc3Cl)n12	melting point	144 to 147 °C
COc1ccc(OC)c(SCCCCC#N)c1	melting point	64 to 66 °C
COc1cc(C=CC(=O)Nc2c(-c3ccccc3C)c3cc(Cl)c(C)cc3oc2=O)cc(OC)c1OC(C)=O	melting point	248 to 250 °C
CC(C)(C)n1cc(-c2ccc(Oc3ccccc3)cc2)c2c(N)ncnc21	melting point	157 to 158 °C

* * *

melting point reference
observation type: melting point

compound	measured result
CN(C(=O)N[C@@H](Cc1ccc(Nc2nccc3ccncc23)cc1)C(=O)O)c1ccccc1Cc1ccccc1	157 °C
CS(=O)(=O)OCCC(CCOS(C)(=O)=O)C(F)(F)F	40 to 45 °C
CC(C)C1C(CO)=C(c2ccc(F)cc2)C=CN1C12CC3CC(CC(C3)C1)C2 (stereo not given)	143 to 145 °C
O=[N+]([O-])c1oc2ccc(CN3CCOCC3)cc2c1-c1ccccc1	151 to 154 °C
Cc1nnc(-c2ccc3occ(-c4cc(Cl)ccc4Cl)c3c2)o1	185 to 186 °C

* * *

Quick reference for melting point among some compounds

compound	melting point
CC(=O)Nc1nnc2c3c(c(N4CCCCC4)nn12)CCCC3	214 to 216 °C
COc1ccc(-c2c(-c3cc(OC)c(OC)c(OC)c3)ncn2-c2cc(OC)c(OC)c(OC)c2)cc1O	154 to 156 °C
N#CN=c1[nH]c2cc(Cl)c(Cl)c([N+](=O)[O-])c2[nH]c1=O	280 to 285 °C
Cn1c(Br)c(C#N)c(Br)c1C#N	175 to 178 °C
COc1ccc(CCCC(=O)O)cc1NC(=O)C[C@H]1O[C@H](c2cccc(OC)c2OC)c2cc(Cl)ccc2N(CC(C)(C)CO)C1=O	119 to 121 °C
CCN1C(=O)C(C)(C)c2ccc(C(=O)Nc3ccccc3)cc21	227 to 230 °C
O=C(Oc1ccc(Cl)cc1Cn1nc(-c2ccc(C(F)(F)F)cc2)oc1=O)c1ccc(CCl)cc1	142 to 144 °C
CCSC(=N)Nc1ccc2[nH]cc(C3=CCN(C)CC3)c2c1	77 to 79 °C
COC(=O)c1cccc(Cl)c1NC(=O)CC1c2ccccc2Oc2ccccc21	178 to 179 °C
COc1cc(-c2cn(Cc3ccccc3)c(=O)c3ccccc23)cc(OC)c1OC	166 to 168 °C
CCc1c(F)c(=O)oc2cc(O)cc(O)c12	227 to 229 °C
CNC(=O)c1ccc(F)c(F)c1	143 to 145 °C
CCc1nc(OC)c(NC(=O)N2CCN(c3cc(OC)cc(OC)c3)CC2)cc1C	115 to 116 °C
CC(=O)n1nc(S(=O)(=O)Cl)nc1N	166 to 168 °C
CN1CC=C(SC(c2cccc(Br)c2)c2nc3ccccc3[nH]2)CC1 (stereo unspecified)	189 °C
N#CC(=C(C#N)c1ccc(F)cc1)c1ccc(F)cc1	194 to 195 °C
Nc1ccc(C2CCN(c3ccncc3)CC2)cc1	196 to 197 °C
CN(C=C(C#N)C(=O)Nc1ccccc1Cl)Cc1ccccc1Cl	138 to 139 °C
Cn1nnc(-c2cccc(N)c2)n1	97 °C
O=C(O)c1ccc(F)c(F)c1Cl	167 to 168 °C
Cc1cc(C(F)(F)C(F)(F)F)ccc1NC(=O)c1ccc(Cl)c(Cl)c1C(=O)NC(C)C	208 to 209 °C
